Reference source: patent US10752588B2

Item-by-item account of IC50
- System Under Test: human D2R/β-arrestin (Homo sapiens (Human), UniProt P14416)
- Sequence (P14416 whole entry): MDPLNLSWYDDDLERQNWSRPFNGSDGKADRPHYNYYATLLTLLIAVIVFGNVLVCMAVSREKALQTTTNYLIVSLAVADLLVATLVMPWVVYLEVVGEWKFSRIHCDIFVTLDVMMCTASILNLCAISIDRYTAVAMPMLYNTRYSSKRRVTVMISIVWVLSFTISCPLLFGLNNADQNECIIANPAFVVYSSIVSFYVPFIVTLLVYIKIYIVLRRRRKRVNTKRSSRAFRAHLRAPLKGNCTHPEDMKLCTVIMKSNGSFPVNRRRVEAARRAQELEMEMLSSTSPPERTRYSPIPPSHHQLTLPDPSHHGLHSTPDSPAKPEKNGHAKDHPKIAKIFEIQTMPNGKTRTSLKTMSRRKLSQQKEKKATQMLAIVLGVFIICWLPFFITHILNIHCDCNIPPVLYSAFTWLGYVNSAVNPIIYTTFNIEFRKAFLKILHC
- Assay Protocol: cell-based
- Test Parameters: cAMP Antagonist

Below, each entry is followed by its recorded IC50 result.
* CC(C)N(CC1CCN(CCOc2ccccc2)CC1)C(c1ccc(Cl)cc1)c1ccccn1 (single isomer, unassigned) [Compound 103b] | > 30 µM
* CC(C)N(CC1CCN(CCOc2ccccc2)CC1)C(c1ccc(Cl)cc1)c1ccccn1 (single isomer, unassigned) [Compound 103a] | < 0.1 µM

Now for a further compound.
Query: Give the measured IC50 of CC(C)N(CC1CCN(CCOc2ccccc2)CC1)C(c1ccc(Cl)cc1)c1ccccn1 (stereo not drawn) [Compound 103] .
Response: > 30 µM

###

- System Under Test: human D2R/β-arrestin (Homo sapiens (Human))
- Assay Protocol: β-Arrestin agonist assay (PathHunter)
- Type: cell-based
- Test Parameters: CHO-K1 cell line expressing human D2R/β-arrestin
- Procedure: The assays can be performed using proper detection reagents either prepared using routine methods known in the art or commercially available (e.g., PathHunter® β-Arrestin Detecting Kit (DiscoveRX)). Cells are grown to the necessary confluence and then detached. The cells are then centrifuged, washed, resuspended, and seeded into a container (e.g., 384-well plate). […] The read-out (e.g., luminescence, or fluorescence) is detected using standard equipment. […]
Item-by-item account of EC50

Below, each entry is followed by its recorded EC50 result.
• c1ccc(OCCN2CCC(CNC(c3ccc4c(c3)OCO4)c3ccccn3)CC2)cc1 (single isomer, unassigned) [Compound 102a] = > 30 µM
• O=C(NC(c1ccc(F)cc1)c1ccccn1)C1CCN(CCOc2c(F)cccc2F)CC1 (centres unmarked) = > 30 µM
• FC(F)(F)CN(CC1CCN(CCOc2ccccc2)CC1)C(c1ccc(Cl)cc1)c1ccccn1 (single isomer, unassigned) [Compound 125a] = > 30 µM
• O=C(NC(c1ccc2c(c1)OC(F)(F)O2)c1ccccn1)C1CCN(CCOc2ccc(F)cc2F)CC1 (centres unmarked) [Compound 130] = 0.1 to 1 µM
• O=C(NC(c1ccc(Cl)cc1)c1ccccn1)C1CCN(CCOc2ccc3cccnc3c2)CC1 (single isomer, unassigned) [Compound 16a] = 1 to 10 µM

Query: Give the measured EC50 of O=C(NC(c1ccc(F)cc1)c1ccccn1)C1CCN(CCOc2cc(F)ccc2F)CC1 (centres unmarked) .
Response: > 30 µM

Query: Give the measured EC50 of O=C(NC(c1ccc(Cl)cc1)c1ccccn1)C1CCN(CCOc2ccc(Cl)cc2)CC1 (centres unmarked) .
Response: > 30 µM

Query: Give the measured EC50 of O=C(NC(c1ccc(Cl)cc1)c1ccccc1F)C1CCN(CCOc2ccccc2F)CC1 (single isomer, unassigned) [Compound 96a] .
Response: > 30 µM

Query: Give the measured EC50 of COc1cccc(C(c2ccccn2)N(C)CC2CCN(CCOc3ccccc3F)CC2)c1 (centres unmarked) [Compound 77] .
Response: > 30 µM

Query: Give the measured EC50 of CN(CC1CCN(CCOc2ccccc2F)CC1)C(c1ccc2c(c1)OCO2)c1ccccn1 (single isomer, unassigned) [Compound 138b] .
Response: > 30 µM

Query: Give the measured EC50 of COc1cccc(C(c2ccccn2)N(C)CC2CCN(CCOc3ccccc3F)CC2)c1 (single isomer, unassigned) [Compound 77b] .
Response: > 30 µM
